All figures here come from PubChem BioAssay AID1421.

Recorded measurements of PGE2 EC50 with compound, one per entry
Target: UniProt P43116
Sequence (P43116 whole entry, looked up): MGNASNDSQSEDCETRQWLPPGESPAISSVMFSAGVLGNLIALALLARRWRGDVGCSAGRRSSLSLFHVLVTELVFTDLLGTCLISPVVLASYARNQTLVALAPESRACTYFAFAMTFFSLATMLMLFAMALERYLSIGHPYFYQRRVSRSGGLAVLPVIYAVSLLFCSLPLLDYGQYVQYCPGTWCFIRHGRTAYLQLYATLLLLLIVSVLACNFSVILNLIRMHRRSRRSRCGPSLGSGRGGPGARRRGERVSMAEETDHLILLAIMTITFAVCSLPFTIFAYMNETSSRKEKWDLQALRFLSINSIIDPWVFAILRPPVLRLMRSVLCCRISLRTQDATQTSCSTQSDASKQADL
Test: EP2 receptor modulators, dose response, cell-based, human EP2, PGE2 EC50 shift (AID 1421)
Settings: EP2-expressing cells, PGE2 EC50 shift by compound; measured here: PGE2 EC50 at 6.7 uM compound

{"compound": "Cc1ccc(-c2nnc(N3CCC(C)CC3)c3ccccc23)cc1", "PGE2 EC50 with compound (nM)": 1.39}
{"compound": "CC(C)n1c2ccccc2c2nc3ccccc3nc21", "PGE2 EC50 with compound (nM)": 2.59}
{"compound": "Cc1ccc(C)c(CN2C(=O)C(C)Oc3ccc(C)cc32)c1 (centres undefined)", "PGE2 EC50 with compound (nM)": 0.31}
{"compound": "CCn1c(=S)[nH]c2c(c1=O)C(C)(C)Cc1ccccc1-2", "PGE2 EC50 with compound (nM)": 0.76}
